- EXPERIMENT NOTES: Ocular tissue distribution and pharmacokinetics, 7.5 and 15 mg/kg oral, pigmented Dutch Belted rabbits (Example 7)
- Format: in vivo
- TEST CONTEXT: Dutch Belted, rabbit, choroid-RPE, oral, 15 mg/kg, DB rabbits, Day 15, 15 mg/kg BID, 6 hr; read-out: Mean Choroid-RPE Concentration
REPORTED PROPERTY: concentration at 6 h (ng/g)
Number in ng/g, nothing else.

Note to self: concentration at 6 h recorded for `CC(=O)c1nn(CC(=O)N2C[C@H](F)C[C@H]2C(=O)Nc2cccc(Br)n2)c2ccc(-c3cnc(C)nc3)cc12` was 1880

Origin of the recorded values: patent US20230126447A1
